Entries and their abundance fitness
B1: Protein S100-G, residues 1 to 79; numbered along this chain, P02633 (parent)
chain: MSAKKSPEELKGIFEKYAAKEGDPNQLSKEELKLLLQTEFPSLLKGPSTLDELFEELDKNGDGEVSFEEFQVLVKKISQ

Variants of: B1
Test: abundance fitness (aPCA) (normalised: wild type 0, dead -1); higher = more abundant; growth selection in yeast, the domain comes from the species named
Details: Bos taurus

>  <variant label>
L32W

>  <abundance fitness>
-0.209

$$$$
>  <variant label>
G22C

>  <abundance fitness>
-0.264

$$$$
>  <variant label>
E21P

>  <abundance fitness>
-0.35

$$$$
>  <variant label>
E55I

>  <abundance fitness>
-0.035

$$$$
>  <variant label>
S66V

>  <abundance fitness>
0

$$$$
>  <variant label>
Q71R

>  <abundance fitness>
-0.091

$$$$
>  <variant label>
K33F

>  <abundance fitness>
-0.022

$$$$
>  <variant label>
E55R

>  <abundance fitness>
0.001

$$$$
>  <variant label>
S28K

>  <abundance fitness>
-0.048

$$$$
>  <variant label>
K16P

>  <abundance fitness>
-0.34

$$$$
>  <variant label>
P7Y

>  <abundance fitness>
0.063

$$$$
>  <variant label>
L44H

>  <abundance fitness>
-0.035

$$$$
>  <variant label>
V74R

>  <abundance fitness>
-0.245

$$$$
>  <variant label>
A3S

>  <abundance fitness>
-0.123

$$$$
>  <variant label>
E21T

>  <abundance fitness>
-0.082

$$$$
>  <variant label>
D62P

>  <abundance fitness>
-0.027

$$$$
>  <variant label>
D51M

>  <abundance fitness>
0.005

$$$$
>  <variant label>
V72M

>  <abundance fitness>
-0.035

$$$$
>  <variant label>
L50E

>  <abundance fitness>
0.007

$$$$
>  <variant label>
S42F

>  <abundance fitness>
-0.049

$$$$
>  <variant label>
Q26W

>  <abundance fitness>
0.037

$$$$
>  <variant label>
E64G

>  <abundance fitness>
0.059

$$$$
>  <variant label>
P41Y

>  <abundance fitness>
-0.037

$$$$
>  <variant label>
V74D

>  <abundance fitness>
-0.044

$$$$
>  <variant label>
F40W

>  <abundance fitness>
0.008

$$$$
>  <variant label>
E69S

>  <abundance fitness>
-0.07

$$$$
>  <variant label>
G63C

>  <abundance fitness>
-0.04

$$$$
>  <variant label>
E64Q

>  <abundance fitness>
0.081

$$$$
>  <variant label>
K11A

>  <abundance fitness>
-0.157

$$$$
>  <variant label>
Y17N

>  <abundance fitness>
-0.433

$$$$
>  <variant label>
D51A

>  <abundance fitness>
-0.032

$$$$
>  <variant label>
E39Q

>  <abundance fitness>
-0.21

$$$$
>  <variant label>
Q79W

>  <abundance fitness>
-0.086

$$$$
>  <variant label>
L10H

>  <abundance fitness>
-0.155

$$$$
>  <variant label>
E52L

>  <abundance fitness>
-0.001

$$$$
>  <variant label>
P47C

>  <abundance fitness>
0.04

$$$$
>  <variant label>
L36F

>  <abundance fitness>
-0.008

$$$$
>  <variant label>
G61I

>  <abundance fitness>
-0.019

$$$$
>  <variant label>
T49M

>  <abundance fitness>
-0.081

$$$$
>  <variant label>
L43P

>  <abundance fitness>
-0.032

$$$$
>  <variant label>
Y17P

>  <abundance fitness>
-1.25

$$$$
>  <variant label>
Q26S

>  <abundance fitness>
0.042

$$$$
>  <variant label>
T38G

>  <abundance fitness>
-0.1

$$$$
>  <variant label>
E39I

>  <abundance fitness>
-0.24

$$$$
>  <variant label>
L73Y

>  <abundance fitness>
-0.05

$$$$
>  <variant label>
F54M

>  <abundance fitness>
0.007

$$$$
>  <variant label>
E31P

>  <abundance fitness>
-0.022

$$$$
>  <variant label>
I77C

>  <abundance fitness>
-0.136

$$$$
>  <variant label>
A19V

>  <abundance fitness>
-0.062

$$$$
>  <variant label>
E9N

>  <abundance fitness>
-0.03

$$$$
>  <variant label>
A19M

>  <abundance fitness>
-0.015

$$$$
>  <variant label>
F54I

>  <abundance fitness>
0.051

$$$$
>  <variant label>
A19L

>  <abundance fitness>
0.02

$$$$
>  <variant label>
E55T

>  <abundance fitness>
0.005

$$$$
>  <variant label>
K76I

>  <abundance fitness>
-0.131

$$$$
>  <variant label>
G63N

>  <abundance fitness>
-0.082

$$$$
>  <variant label>
M1S

>  <abundance fitness>
-0.368

$$$$
>  <variant label>
K4S

>  <abundance fitness>
-0.005

$$$$
>  <variant label>
D62G

>  <abundance fitness>
-0.032

$$$$
>  <variant label>
Q26E

>  <abundance fitness>
0.012

$$$$
>  <variant label>
L44Y

>  <abundance fitness>
0.033

$$$$
>  <variant label>
L73D

>  <abundance fitness>
-0.668

$$$$
>  <variant label>
Q26R

>  <abundance fitness>
0.054

$$$$
>  <variant label>
E31Y

>  <abundance fitness>
-0.07

$$$$
>  <variant label>
Q71I

>  <abundance fitness>
-0.054

$$$$
>  <variant label>
Q79G

>  <abundance fitness>
0.074

$$$$
>  <variant label>
K5F

>  <abundance fitness>
-0.015

$$$$
>  <variant label>
V74T

>  <abundance fitness>
0.024

$$$$
>  <variant label>
K59L

>  <abundance fitness>
0.052

$$$$
>  <variant label>
G63D

>  <abundance fitness>
-0.005

$$$$
>  <variant label>
E15W

>  <abundance fitness>
-0.048

$$$$
>  <variant label>
E30C

>  <abundance fitness>
-0.018

$$$$
>  <variant label>
K16S

>  <abundance fitness>
-0.042

$$$$
>  <variant label>
S2F

>  <abundance fitness>
0.073

$$$$
>  <variant label>
L35T

>  <abundance fitness>
-0.174

$$$$
>  <variant label>
L50Q

>  <abundance fitness>
-0.028

$$$$
>  <variant label>
S66R

>  <abundance fitness>
-0.036

$$$$
>  <variant label>
G22I

>  <abundance fitness>
-0.291

$$$$
>  <variant label>
A19H

>  <abundance fitness>
-0.013

$$$$
>  <variant label>
S48Y

>  <abundance fitness>
0.016

$$$$
>  <variant label>
N60G

>  <abundance fitness>
0.027

$$$$
>  <variant label>
L32S

>  <abundance fitness>
-0.138

$$$$
>  <variant label>
P24A

>  <abundance fitness>
-0.093

$$$$
